Tested on: RXRa homodimer (NR concentration 180 nM)
Experiment: PBM binding z-score (relative to random genomic background probes); higher = stronger binding; sequences stand for … in GC…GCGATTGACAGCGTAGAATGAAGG
# PBM binding z-score per record follows

A selection of reference data follows.
- query sequence: "CTATGTAGGTTAAGGGGGTCAGTCAGTTTGAAAG"
  PBM binding z-score: 4.08
- query sequence: "GATTCAGGGTCAGCTAGAGGCCAGAGTATGGAAA"
  PBM binding z-score: 4.72
- query sequence: "CAACCTAGGTCACCGGAAGGTCAAAGTCCGCATG"
  PBM binding z-score: 7.71
- query sequence: "GCTTACGGGTCAAAGGTTATAACATGAATAGAAT"
  PBM binding z-score: 9.77

Next sequence, PBM binding z-score to be filled in.
Item ATAGAAAGGTCGAAGGTGAGTATACCCACCCGAA has what recorded PBM binding z-score?
4.9
